kill rate in % (efficacy): recorded values
# System: Musca domestica adults
# test_protocol: Musca domestica test (MUSCDO), Example 14
# Assay type: in vivo
# experimental_context: application rate 100 ppm, treated sponge, after 2 days
Field: numeric (%). Do not append units.

Look over these answered cases.
# molecule, kill rate in % (efficacy) / %
rows = [
    ("O=C(/C=C/c1ccc(C(=O)NCC2CC2)c(Cl)c1)NC(c1cccc(C(F)(F)F)c1)C(F)(F)F (stereo not shown)", 100),
    ("NC(=O)c1ccc(/C=C/C(=O)NC(c2cccc(C(F)(F)F)c2)C(F)(F)F)cc1C(F)(F)F (stereo not shown)", 90),
    ("CC(NC(=O)c1ccc(/C=C/C(=O)NC(c2cccc(C(F)(F)F)c2)C(F)(F)F)cc1C(F)(F)F)C(F)(F)F (stereo not shown)", 100),
]

Consider the additional molecule presented here.
// lookup kill rate in % (efficacy) for CN(C(=O)c1ccc(/C=C/C(=O)NC(c2cccc(C(F)(F)F)c2)C(F)(F)F)cc1C(F)(F)F)C1CC1 (stereo not shown)
95

---

Reported values of efficacy in % for individual entries
# System: green peach aphid (Myzus persicae)
# test_protocol: Myzus test (MYZUPE spray treatment), Example 17
# Format: in vivo
# experimental_context: application rate 100 g/ha, china cabbage leaf discs sprayed, after 6 days
The answer is to be given in %; state only the numeric part.

Which value of efficacy in % has been reported for O=C(/C=C/c1ccc(C(=O)NC(CF)CF)c(Br)c1)NC(c1cccc(C(F)(F)F)c1)C(F)(F)F (stereo not shown) in the records?
100

I would be grateful if you could share the reported efficacy in % for CC(C)(C#N)NC(=O)c1ccc(/C=C/C(=O)NC(c2cccc(C(F)(F)F)c2)C(F)(F)F)cc1Cl (racemic) .
100

---

# Test system: green peach aphid (Myzus persicae)
# test_protocol: Myzus test (MYZUPE spray treatment), Example 17
# Type: in vivo
# experimental_context: application rate 100 g/ha, china cabbage leaf discs sprayed, after 6 days
measurement_name: efficacy in % (%)
Note: unit % is implicit; provide only the numeric part.

Solved cases below.
# compound, efficacy in % / %
measured = [
    ("C#CC(C)NC(=O)c1ccc(/C=C/C(=O)NC(c2cccc(C(F)(F)F)c2)C(F)(F)F)cc1Cl (centres unmarked)", 90),
    ("N#CC1CC1NC(=O)c1ccc(/C=C/C(=O)NC(c2cccc(C(F)(F)F)c2)C(F)(F)F)cc1C(F)(F)F (centres unmarked)", 90),
    ("CCC(=O)NCc1ccc(/C=C/C(=O)NC(c2ccc(F)c(C(F)(F)F)c2)C(F)(F)F)cc1 (centres unmarked)", 90),
    ("CN(C)NC(=O)c1ccc(/C=C/C(=O)NC(c2cccc(C(F)(F)F)c2)C(F)(F)F)cc1C(F)(F)F (centres unmarked)", 100),
    ("O=C(/C=C/c1ccc(C(=O)NC2CCOC2=O)c(C(F)(F)F)c1)NC(c1cccc(C(F)(F)F)c1)C(F)(F)F (centres unmarked)", 100),
    ("O=C(/C=C/c1ccc(C(=O)NC2CC2)c(C(F)(F)F)c1)NC(c1cccc(SC(F)(F)F)c1)C(F)(F)F (centres unmarked)", 100),
    ("O=C(/C=C/c1ccc(C(=O)NCC(F)F)c(Cl)c1)NC(c1cccc(C(F)(F)F)c1)C(F)(F)F (centres unmarked)", 100),
    ("O=C(/C=C/c1ccc(C(=O)Nc2ccncn2)c(Cl)c1)NC(c1cccc(C(F)(F)F)c1)C(F)(F)F (centres unmarked)", 100),
    ("CC(C#N)NC(=O)c1ccc(/C=C/C(=O)NC(c2cccc(C(F)(F)F)c2)C(F)(F)F)cc1Cl (centres unmarked)", 100),
    ("CCC(=O)NCc1ccc(/C=C/C(=O)NC(c2ccc(F)c(Cl)c2)C(F)(F)F)cc1C(F)(F)F (centres unmarked)", 80),
]

Entry CC(=O)N(Cc1ccccn1)Cc1ccc(/C=C/C(=O)NC(c2cccc(C(F)(F)F)c2)C(F)(F)F)cc1F (centres unmarked) : reported efficacy in % = ?
100

Entry source: patent US8889878B2
